assay.target: α1B-adrenoceptor (Homo sapiens, UniProt P35368)
Sequence (P35368 whole entry): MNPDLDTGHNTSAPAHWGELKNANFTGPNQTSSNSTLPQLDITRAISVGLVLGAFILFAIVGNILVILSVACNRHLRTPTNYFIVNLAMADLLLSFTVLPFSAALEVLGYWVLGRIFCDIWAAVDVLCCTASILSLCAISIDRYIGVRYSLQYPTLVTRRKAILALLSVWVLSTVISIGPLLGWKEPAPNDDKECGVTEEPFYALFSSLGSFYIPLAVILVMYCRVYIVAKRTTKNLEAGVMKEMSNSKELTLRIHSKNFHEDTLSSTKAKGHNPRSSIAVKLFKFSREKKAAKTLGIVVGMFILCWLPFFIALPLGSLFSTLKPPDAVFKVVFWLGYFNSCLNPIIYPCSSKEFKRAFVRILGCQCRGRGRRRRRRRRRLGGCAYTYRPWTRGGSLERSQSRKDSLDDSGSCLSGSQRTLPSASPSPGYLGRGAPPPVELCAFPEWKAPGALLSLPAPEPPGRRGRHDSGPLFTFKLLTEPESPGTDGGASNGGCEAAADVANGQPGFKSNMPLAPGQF
procedure.text: intrinsic activity (antagonist) assay in ready-to-use cells stably expressing the receptor (Perkin Elmer)
outcome.measure: IC50

Look up and state reported IC50 for Cc1ccccc1N1CCN(CCCN2CCCC2=O)CC1
32.6 nM

---

assay.target: α1A-adrenoceptor (Homo sapiens)
Sequence (P35348 whole entry): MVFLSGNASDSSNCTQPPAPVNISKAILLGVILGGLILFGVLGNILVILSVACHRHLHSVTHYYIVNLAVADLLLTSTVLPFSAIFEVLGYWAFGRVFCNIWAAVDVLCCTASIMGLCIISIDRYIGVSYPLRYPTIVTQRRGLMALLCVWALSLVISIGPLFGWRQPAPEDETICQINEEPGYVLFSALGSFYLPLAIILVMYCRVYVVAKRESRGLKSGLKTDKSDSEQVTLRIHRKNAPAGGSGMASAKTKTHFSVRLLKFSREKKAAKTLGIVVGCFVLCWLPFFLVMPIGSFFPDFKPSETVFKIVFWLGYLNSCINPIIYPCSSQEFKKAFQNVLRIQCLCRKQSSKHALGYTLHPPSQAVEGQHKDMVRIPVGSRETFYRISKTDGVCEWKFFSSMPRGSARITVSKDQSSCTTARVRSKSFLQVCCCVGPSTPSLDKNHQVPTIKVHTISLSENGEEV
procedure.text: intrinsic activity (antagonist) assay in ready-to-use cells stably expressing the receptor (Invitrogen)
outcome.measure: IC50 (µM)
Kindly provide the numeric value in µM only, without the unit symbol.

Specify reported IC50 for the compound shown: Cc1ccccc1N1CCN(CCCN2CCCC2=O)CC1
42.5
